Assay: Oral bioavailability in Cynomolgus monkey at 30 mg/kg measured upto 48 hrs by LC-MS/MS analysis
Format: ADME, organism-based, Macaca fascicularis
Conditions: in vivo
readout_type: bioavailability (%)
Reply numerically in %, unit not repeated.

Query string: Can you look up the measured bioavailability of `CCc1cnc(N2CCC(COc3ccc(C4=CC[C@H](C(=O)N5CCC[C@@H]5CO)CC4)cc3)CC2)nc1` for me?
Result string: 31.6

###

Biological target: Cytochrome P450 3A4 (Homo sapiens)
Sequence (P08684 whole entry): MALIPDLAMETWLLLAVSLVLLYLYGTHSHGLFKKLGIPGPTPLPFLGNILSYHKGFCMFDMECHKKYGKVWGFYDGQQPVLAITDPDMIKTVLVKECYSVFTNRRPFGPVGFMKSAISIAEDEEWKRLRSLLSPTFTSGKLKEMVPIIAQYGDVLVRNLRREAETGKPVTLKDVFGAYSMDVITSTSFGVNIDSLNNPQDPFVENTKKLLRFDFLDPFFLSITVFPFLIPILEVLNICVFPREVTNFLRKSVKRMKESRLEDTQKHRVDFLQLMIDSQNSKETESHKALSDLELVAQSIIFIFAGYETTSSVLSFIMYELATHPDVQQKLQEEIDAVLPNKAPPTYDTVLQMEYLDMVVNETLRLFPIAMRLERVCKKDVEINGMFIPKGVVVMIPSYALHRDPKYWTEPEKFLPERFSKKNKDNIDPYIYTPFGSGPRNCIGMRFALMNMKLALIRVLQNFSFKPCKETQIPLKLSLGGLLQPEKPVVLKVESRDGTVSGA
Assay: Inhibition of CYP3A4 in human liver microsomes using midazolam as substrate incubated for 5 min in presence of NADPH by LC-MS/MS analysis
Type: ADME, Microsome
readout_type: IC50

Query string: # value lookup — system Cytochrome P450 3A4 (Homo sapiens), readout IC50, item `CCc1cnc(N2CCC(COc3ccc(C4=CC[C@H](C(=O)N5CCC[C@@H]5CO)CC4)cc3)CC2)nc1`
Result string: > 10 µM

###

Test: Kinetic solubility of the compound in water
Assay type: physicochemical
Settings: read-out: Kinetic_solubility
readout_type: solubility kinetic (µM)
Reply numerically in µM, unit not repeated.

Query string: Can you look up the measured solubility kinetic of `CCc1cnc(N2CCC(COc3ccc(C4=CC[C@H](C(=O)N5CCC[C@@H]5CO)CC4)cc3)CC2)nc1` for me?
Result string: 176

###

Experiment: Microsomal stability in rat liver microsome assessed as compound remaining measured upto 45 min in presence of NADPH by LC-MS analysis
Type: ADME
Details: liver microsomes, read-out: Stability
readout_type: remaining at 0.75 h
Please state the value followed by its unit.

Query string: Can you look up the measured remaining at 0.75 h of `CCc1cnc(N2CCC(COc3ccc(C4=CC[C@H](C(=O)N5CCC[C@@H]5CO)CC4)cc3)CC2)nc1` for me?
Result string: 48.3%
